- System: MDA-MB-361 (Breast Carcinoma)
- experiment.notes: combination Emax (second highest fraction inhibited in the dose matrix, 72 h); higher = more inhibition; extreme values may be limits of the assay
The following molecules are listed with their measured combination Emax values.
Just the number, please, no unit after it.

molecule	combination Emax
Cn1cnc2c(F)c(Nc3ccc(Br)cc3Cl)c(C(=O)NOCCO)cc21 [Selumetinib] + CCN(CCO)CCCOc1ccc2c(Nc3cc(CC(=O)Nc4cccc(F)c4)[nH]n3)ncnc2c1 [AZD2811] (first compound max 10 µM, 7x7, partner max 1 µM)	0.193

Retrieve combination Emax measured for CN(CCO)CC[C@H](CSc1ccccc1)Nc1ccc(S(=O)(=O)NC(=O)c2ccc(N3CCC([C@@H](O)c4ccccc4-c4ccc(Cl)cc4)CC3)cc2)cc1S(=O)(=O)C(F)(F)F [AZD4320] + C=CCn1c(=O)c2cnc(Nc3ccc(N4CCN(C)CC4)cc3)nc2n1-c1cccc(C(C)(C)O)n1 [AZD1775] (first compound max 1 µM, partner max 1 µM) and print it.
0.918

Retrieve combination Emax measured for COc1cccc(OCCCN)c1-c1cc(Nc2cnc(C#N)cn2)n[nH]1 [Prexasertib] + C=CCn1c(=O)c2cnc(Nc3ccc(N4CCN(C)CC4)cc3)nc2n1-c1cccc(C(C)(C)O)n1 [AZD1775] (first compound max 1 µM, partner max 1 µM) and print it.
0.926
